protocol.notes: Pharmacokinetics after i.p. administration in mice
Type: in vivo, mouse
protocol.conditions: C57BL/6J, mouse, plasma, ip; female mice, 10 mg/kg i.p.
quantity: Cmax (ng/mL)
The answer is to be given in ng/mL; state only the numeric part.

Quick one: Cmax of CCCCCCCCn1cc(C(=O)O)c(=O)c2cc3c(cc21)OCO3 [Cpd1] ? 6000

###

protocol.notes: Pharmacokinetics after i.p. administration in mice
Assay type: in vivo, mouse
protocol.conditions: C57BL/6J, mouse, plasma, ip; female, 8-times injection of 1 mg/kg at 10 min intervals; read-out: t1/2
quantity: half-life (min)
The reply should be a number in min, with the unit left off.

Which measured half-life value corresponds to `CCCCCCCCn1cc(C(=O)O)c(=O)c2cc3c(cc21)OCO3` ? 14.8
